ASSAY_NAME: protein stability index of a GFP-peptide fusion (GPS, HEK-293T) (PSI 1-6); higher = more stable;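 note: 24-mer peptide tiles fused after GFP, lentivirally expressed, FACS-sorted into six equal bins by GFP/DsRed ratio, decoded by Illumina sequencing, PSI is the read-weighted mean bin number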
EXPERIMENTAL_PARAMETERS: treatment: DMSO; c terminus: a fixed tail appended
REPORTED_PROPERTY: protein stability index

Q: Tell me measured protein stability index for HSFVLVTSLGLTYDGMLSDVQSMP [MAGEA10] please.
Ans: 2.83

Q: Tell me measured protein stability index for CVLADRLDCADALLKAGADVNKTD [INVS] please.
Ans: 4.4

Q: Tell me measured protein stability index for WVFGTSFLPFLLCAVLLSAVQAQA [FADS1] please.
Ans: 3.09

Q: Tell me measured protein stability index for LRFCHNNKKAKRYLLHGLECVVAM [EIF5] please.
Ans: 2.14

Q: Tell me measured protein stability index for QRDSKRWSRLEEFDVFSPKQDLVP [DLC1] please.
Ans: 3.63

Q: Tell me measured protein stability index for HYAVNSQFTMGGPAISMASPMSIP [CARM1] please.
Ans: 2.63

Q: Tell me measured protein stability index for LSPEPPVYSLQDFDTLATVGTGTF [PRKX] please.
Ans: 3.64

Q: Tell me measured protein stability index for GHLCAAEVVKIRDSFSNQNTETKD [DLC1] please.
Ans: 4.18

Q: Tell me measured protein stability index for FPVAEQDKLLKHMIIEHKIVIADV [ZNF277] please.
Ans: 2.25

Q: Tell me measured protein stability index for YQPEPFACGIEHCSVHYVSDSGDG [FBXO34] please.
Ans: 2.93

Hi team, please reply with protein stability index for each item in this list.
1. QVPYPPRQLLRDFQSRLPYQYLHY [P3H4]
2. NIYCLNCEVPTCSLCKVFGAHKDC [TRIM55]
3. DESQISAEEAEDHGRIPDPDDFVP [FAM189A2]
4. TPISNEVEMESEEQIAERKRKMVS [KMT2E]
5. VSFVIHNLPIIAKMAAVSKASGRF [SEPHS2]
6. ERQVLPDPEVLEAVGDRQDGLREQ [PBXIP1]
7. LPCQHNLCRKCANDIFQAANPYWT [TRIM63]
8. GKKDKHSQSPRAAGPREGHSHSHH [PBXIP1]

Ans:
1. 2.45
2. 3.11
3. 5.6
4. 5.02
5. 3.08
6. 5.54
7. 2.38
8. 5.32

Hi team, please reply with protein stability index for each item in this list.
1. FEEVLSSTAHASAQSLAGGSRRTK [TPD52L1]
2. VSLHQASLGGCSQDFLLFSPEVES [NFE2L1]
3. HYVAQTGILWLLMNNCFLNLSPRK [GAGE1]

Ans:
[5.16, 2.06, 2.72]

Hi team, please reply with protein stability index for each item in this list.
1. DEIENLLDSDHRELIGDYSKAFLL [CDC25B]
2. NLLQYVRMPLLTPRYITDVIDAEP [KLHL12]
3. TTISYLPHAPPFAGGHPAQLGLGR [JUNB]
4. MKVKVIPVLEDNYMYLVIEELTRE [HAGHL]
5. QLHPPRWYSRLQACQWGGNFLAFS
6. HINSISVNSDYETYMSADDLRINL [PPP2R2B]

Ans:
[3.55, 2.29, 2.72, 2.94, 2.11, 3.15]

Hi team, please reply with protein stability index for each item in this list.
1. LGVALFTMLAGHYPFQDSEPVLLF [TRIB3]
2. TDLEMQIESLNEELAYMKKNHEEE [KRT13]
3. LQISEELLSRNQLSTAASLGPSGL [LCOR]
4. ALCATDVKFISNPPSMVAAGSVVA [CCND1]
5. IKMAMVACGDAFTVAIGAESEVYS [NEK8]
6. TSCKLTDLRGVCVSGKCEPIGCDG [ADAMTSL2]
7. VVQDSVNISGHTNTNTLKVPECRL [SPOPL]

Ans:
2.94
5.4
3.5
2.86
2.57
3.4
3.34

Hi team, please reply with protein stability index for each item in this list.
1. ADNMEFEQCIKLWLHALHLRQKGN [FEM1B]
2. KRNKRNPIFQDSQDTEVFSWSDNE [FAM104B]
3. QALRRLRPRTRKVKSVSPQGNSVD [NCF4]
4. LKKGSKEKQADFLDKQMSRDEHRA [NFE2L1]
5. KRCINLWKYALDMQQSNLDPLSPM [FEM1C]
6. FLVMKGQEGAASKVLGRLRALSDT [SLC2A12]

Ans:
[2.56, 4.46, 4.32, 5, 2.33, 2.27]

Hi team, please reply with protein stability index for each item in this list.
1. QETLTNISAVNYDFDEEYFSNTSE [DAPK3]
2. ESKDQGKTLALARTMDIPRSVQNF [ALDH8A1]

Ans:
5.41
4.01

Hi team, please reply with protein stability index for each item in this list.
1. MLSPQRVAAAASRGADDAMESSKP [ATL3]
2. TIEECCRKQKQELCEKFDYLYGIL [TRIM55]
3. VQIRRLEAAGESLEEEIRRKQILL [ZC2HC1C]

Ans:
1: 5.21; 2: 1.88; 3: 3.31

Hi team, please reply with protein stability index for each item in this list.
1. EPREFSSRNFGVRNQGNFSVVGTV [ZC2HC1C]
2. WEEAQSPANCPACREPSPKMDFKT [TRIM43]
3. KHFKVQLVDNVYCIGQRRFHTMDE [NCK2]
4. VARSGTPAVENKQQIGDAIRMIVR [PLK2]
5. CLVCGDVASGYHYGVASCEACKAF [ESRRA]
6. WGLEEEDFQPREEAMLYHNQTAEL [P3H4]
7. NGTAWTYHSQDELGGFSHWGRLTS [PKD2L1]

Ans:
3.06
4.56
2.48
3
3.96
4.61
2.38

Q: Tell me measured protein stability index for CEEQKCEEEVFPLAMNYLDRFLAG [CCND2] please.
Ans: 3.82
